test system: MDA-MB-435; assay: cells; conditions: Homo sapiens
Description: Inhibition of MDA-MB-435 breast cancer cell proliferation
pIC50: −log10 of the molar value.
# if value of pIC50 reaches 7, tag true; if it stays below, tag false

Worked cases, answers included:
>>> label_value("CC/C(=C(/c1ccc(O)cc1)c1ccc(OCCN(C)CCOCCO/N=C/c2ccc(O)c(C(=O)NCNC3CC(O[C@H]4C[C@](O)(C(=O)CO)Cc5c(O)c6c(c(O)c54)C(=O)c4c(OC)cccc4C6=O)OC(C)C3O)c2)cc1)c1ccccc1 (some centres not stated)")
"true"
>>> label_value("CC/C(=C(/c1ccc(O)cc1)c1ccc(OCN(C)C)cc1)c1ccccc1")
"false"
>>> label_value("CC/C(=C(\\c1ccccc1)c1ccc(OCCN(C)C)cc1)c1ccccc1")
"true"
>>> label_value("CC/C(=C(/c1ccc(O)cc1)c1ccc(OCCN(C)CCO/N=C/c2ccc(O)c(C(=O)NCNC3CC(O[C@H]4C[C@](O)(C(=O)CO)Cc5c(O)c6c(c(O)c54)C(=O)c4c(OC)cccc4C6=O)OC(C)C3O)c2)cc1)c1ccccc1 (some centres not stated)")
"true"

Alright, here's another molecule for you.
Hi team, for CC/C(=C(/c1ccc(O)cc1)c1ccc(OCCN(C)CCOCCOCCO/N=C/c2ccc(O)c(C(=O)NCNC3CC(O[C@H]4C[C@](O)(C(=O)CO)Cc5c(O)c6c(c(O)c54)C(=O)c4c(OC)cccc4C6=O)OC(C)C3O)c2)cc1)c1ccccc1 (some centres not stated) , is the recorded pIC50 at or above 7?
true

----------
Listed below: IC50 values for each entry.
biological target: Estrogen receptor (Homo sapiens, UniProt Q92731+P03372); details: mcf-7
Description: Inhibition of [3H]E2 binding to estrogen receptor alpha in MCF-7 cell lysate
The reply should contain only the number, in nM.

Examples with answers:
>>> numeric_readout("CCC(c1ccccc1)C(c1ccc(O)cc1)c1ccc(OCCN(C)CCOCCO/N=C/c2ccc(O)c(C(N)=O)c2)cc1 (configuration not stated)")
150
>>> numeric_readout("CC/C(=C(/c1ccc(O)cc1)c1ccc(OCCN(C)CCOCCOCCO/N=C/c2ccc(O)c(C(=O)NCNC3CC(O[C@H]4C[C@](O)(C(=O)CO)Cc5c(O)c6c(c(O)c54)C(=O)c4c(OC)cccc4C6=O)OC(C)C3O)c2)cc1)c1ccccc1 (some centres not stated)")
200
>>> numeric_readout("CC/C(=C(/c1ccc(O)cc1)c1ccc(OCN(C)C)cc1)c1ccccc1")
5
>>> numeric_readout("CCC(c1ccccc1)C(c1ccc(O)cc1)c1ccc(OCCN(C)CCO/N=C/c2ccc(O)c(C(N)=O)c2)cc1 (configuration not stated)")
300
>>> numeric_readout("CC/C(=C(/c1ccc(O)cc1)c1ccc(OCCN(C)CCO/N=C/c2ccc(O)c(C(=O)NCNC3CC(O[C@H]4C[C@](O)(C(=O)CO)Cc5c(O)c6c(c(O)c54)C(=O)c4c(OC)cccc4C6=O)OC(C)C3O)c2)cc1)c1ccccc1 (some centres not stated)")
300
>>> numeric_readout("CCC(c1ccccc1)C(c1ccc(O)cc1)c1ccc(OCCN(C)CCOCCOCCO/N=C/c2ccc(O)c(C(N)=O)c2)cc1 (configuration not stated)")
150

Turning to the following compound.
What measured IC50 goes with CC/C(=C(/c1ccc(O)cc1)c1ccc(OCCN(C)CCOCCO/N=C/c2ccc(O)c(C(=O)NCNC3CC(O[C@H]4C[C@](O)(C(=O)CO)Cc5c(O)c6c(c(O)c54)C(=O)c4c(OC)cccc4C6=O)OC(C)C3O)c2)cc1)c1ccccc1 (some centres not stated) ?
300

----------
tested on: MCF7; experiment: cells; settings: Homo sapiens
Description: Inhibition of estrogen receptor positive MCF-7 breast cancer cell proliferation
Just a reminder that ties go to 0.0: only IC50 strictly below 70 nM counts as 1.0.

Worked examples follow.
>>> label_value("CC/C(=C(/c1ccc(O)cc1)c1ccc(OCCN(C)CCOCCO/N=C/c2ccc(O)c(C(=O)NCNC3CC(O[C@H]4C[C@](O)(C(=O)CO)Cc5c(O)c6c(c(O)c54)C(=O)c4c(OC)cccc4C6=O)OC(C)C3O)c2)cc1)c1ccccc1 (stereo partly specified)")
1.0
>>> label_value("CC/C(=C(/c1ccc(O)cc1)c1ccc(OCN(C)C)cc1)c1ccccc1")
0.0
>>> label_value("CC/C(=C(/c1ccc(O)cc1)c1ccc(OCCN(C)CCOCCOCCO/N=C/c2ccc(O)c(C(=O)NCNC3CC(O[C@H]4C[C@](O)(C(=O)CO)Cc5c(O)c6c(c(O)c54)C(=O)c4c(OC)cccc4C6=O)OC(C)C3O)c2)cc1)c1ccccc1 (stereo partly specified)")
1.0

Attention now shifts to the item below.
Please indicate whether the reported IC50 of CC/C(=C(/c1ccc(O)cc1)c1ccc(OCCN(C)CCO/N=C/c2ccc(O)c(C(=O)NCNC3CC(O[C@H]4C[C@](O)(C(=O)CO)Cc5c(O)c6c(c(O)c54)C(=O)c4c(OC)cccc4C6=O)OC(C)C3O)c2)cc1)c1ccccc1 (stereo partly specified) is strictly below 70 nM.
0.0
